The measured values listed here are drawn from patent US20180094062A1.

Target: T1, TtSlyDcys-Her3
T1 chain: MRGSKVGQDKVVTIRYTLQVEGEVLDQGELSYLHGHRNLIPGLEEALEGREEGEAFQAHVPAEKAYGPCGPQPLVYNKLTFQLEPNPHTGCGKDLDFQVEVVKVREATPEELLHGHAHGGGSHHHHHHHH
Assay: ELISA, antigen coated, hybridoma supernatant
assay_readout: OD 405 nm (OD)
Please give a number only; it is taken to be in OD.

[
  {
    "binder": "anti-HER3 antibody M-17-12 (antibody, V domains shown, mouse hybridoma clone; VH and VL stated identical to those of M-17-02) VH: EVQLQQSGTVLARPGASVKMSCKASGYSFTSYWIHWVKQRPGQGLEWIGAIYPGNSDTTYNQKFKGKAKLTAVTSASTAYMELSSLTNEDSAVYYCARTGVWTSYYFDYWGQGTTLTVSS VL: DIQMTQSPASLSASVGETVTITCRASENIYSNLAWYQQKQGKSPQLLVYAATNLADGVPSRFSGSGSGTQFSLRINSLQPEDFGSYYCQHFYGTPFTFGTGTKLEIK",
    "unit_tag": "OD",
    "OD 405 nm": 1.53
  },
  {
    "binder": "anti-HER3 antibody M-17-02 (antibody, V domains shown, mouse hybridoma clone) VH: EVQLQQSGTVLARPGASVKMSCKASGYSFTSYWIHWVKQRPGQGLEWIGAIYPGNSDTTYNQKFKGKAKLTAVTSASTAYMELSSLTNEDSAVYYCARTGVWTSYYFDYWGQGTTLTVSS VL: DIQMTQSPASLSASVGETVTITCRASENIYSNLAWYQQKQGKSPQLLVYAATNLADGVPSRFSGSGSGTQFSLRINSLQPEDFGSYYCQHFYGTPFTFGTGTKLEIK",
    "unit_tag": "OD",
    "OD 405 nm": 1.55
  },
  {
    "binder": "anti-HER3 antibody M-43-01 (antibody, V domains shown, mouse hybridoma clone) VH: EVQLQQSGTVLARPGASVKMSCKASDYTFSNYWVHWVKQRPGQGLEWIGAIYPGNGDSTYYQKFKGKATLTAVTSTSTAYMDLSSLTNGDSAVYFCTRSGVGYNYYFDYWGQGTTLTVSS VL: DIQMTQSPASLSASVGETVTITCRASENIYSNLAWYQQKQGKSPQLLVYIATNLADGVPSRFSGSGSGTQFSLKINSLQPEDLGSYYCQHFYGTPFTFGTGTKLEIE",
    "unit_tag": "OD",
    "OD 405 nm": 3.5
  }
]

Please turn your attention to the following entry.
**Q:** Form field: reported OD 405 nm of anti-HER3 antibody M-17-07 (antibody, V domains shown, mouse hybridoma clone) VH: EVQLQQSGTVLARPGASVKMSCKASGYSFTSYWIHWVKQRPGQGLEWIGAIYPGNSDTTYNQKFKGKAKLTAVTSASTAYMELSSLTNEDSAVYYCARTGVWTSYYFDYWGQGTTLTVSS VL: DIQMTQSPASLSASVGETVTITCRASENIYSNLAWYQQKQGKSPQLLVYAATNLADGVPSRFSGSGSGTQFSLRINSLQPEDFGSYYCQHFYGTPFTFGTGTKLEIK
**A:** 1.53
